Origin of measurements: PubChem BioAssay (NCI)

Assay: NCI Yeast Anticancer Drug Screen. Data for the mlh1 rad18 strain (AID 175)
Details: S. cerevisiae mlh1 rad18 strain growth inhibition; at 50.0 µM
About 79,000 compounds went through this panel and 15% of them were active in at least one assay; those are over-represented in the sample as a whole. The source made the active and inactive calls. Rule as the data show it: active = growth inhibition above about 70%; inactive = the rest.
Labels: 1 (active), -1 (inactive)

>  <compound>
COCCOCOC(C)(C)[C@H](CCO)O[Si](c1ccccc1)(c1ccccc1)C(C)(C)C

>  <label>
1

$$$$
>  <compound>
COc1ccc2c(c1)C1(C)CCC(=O)C(C)=C1CC2 (stereo unspecified)

>  <label>
-1

$$$$
>  <compound>
CCC[n+]1ccc(CCS(=O)(=O)c2ccc(N)cc2)cc1

>  <label>
-1

$$$$
>  <compound>
NC(=O)c1[nH]c(N=Nc2ccc(S(N)(=O)=O)cc2)nc1N

>  <label>
-1

$$$$
>  <compound>
CCSSC12CCCN1C(=O)C1CCCN1C2=O (stereo unspecified)

>  <label>
-1

$$$$
>  <compound>
CNc1ccccc1C(=O)N/N=C/c1c(O)ccc2ccccc12

>  <label>
-1

$$$$
